assay: qHTS of pediatric cancer cell lines to identify multiple opportunities for drug repurposing: Primary screen for Saos-2 cells (AID 1347097); settings: Saos-2 viability, CellTiter-Glo ATP luminescence, 48 h; series mostly up to 46 µM; also: % is scaled to controls: 0 for no effect and ±100 for the full control effect; nearly all actives have a fitted effect of over 40% in size
Records with an inconclusive call do not appear. Activity calls are given as the source filed them. Calls follow the shape of the dose curve; as a rule, active = well fitted cell-killing curve with a large enough effect; inconclusive = small, poorly fitted or top-dose-only effect; inactive = no such curve, though single readings can be large or run the other way.
Output constraint: value belongs to 1 (yes) for active, 0 (no) for inactive

Request: Dear colleague, could you share the recorded outcome for CCN1CCCC1CN (stereo not drawn) when you have a moment?
Response: 0 (no)

Request: Dear colleague, could you share the recorded outcome for CC(NC(CCc1ccccc1)C(=O)O)C(=O)N1C(=O)N(C)CC1C(=O)O (stereo not drawn) when you have a moment?
Response: 0 (no)

Request: Dear colleague, could you share the recorded outcome for Fc1ccc(C(c2ccc(F)cc2)N2CCNCC2)cc1 when you have a moment?
Response: 0 (no)

Request: Dear colleague, could you share the recorded outcome for CCCC(CCC)(C(=O)OCC)C(=O)OCC when you have a moment?
Response: 0 (no)

---

experiment: Cell Viability - Renal Proximal Tubule (AID 545); details: renal proximal tubule cells viability, primary cells of rat origin;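 also: cells exposed to compound for 40 hours; nearly all actives have a fitted effect of over 40% in size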
Results filed as inconclusive are left out. Active and inactive are the calls of the source. Calls come from the whole dose curve; as a rule, active = well fitted cell-killing curve with a large enough effect; inconclusive = small, poorly fitted or top-dose-only effect; inactive = flat fitted curve, though single readings scatter.
Output constraint: value belongs to active, inactive

Study these solved cases before continuing.
Cc1ccc(O)cc1    inactive
CC(C)(c1ccc(O)cc1)c1ccc(O)cc1    inactive
Nc1c2ccccc2nc2ccccc12    active
Oc1ccccc1    inactive

Request: Dear colleague, could you share the recorded outcome for c1ccc2occc2c1 when you have a moment?
Response: inactive

Request: Dear colleague, could you share the recorded outcome for Nc1ccc(O)cc1 when you have a moment?
Response: active

---

Assay: Cell Viability - LYMP2-007 (AID 979);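 also: cells exposed to compound for 24 h before reading; nearly all actives have a fitted effect of over 60% in size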
Settings: LYMP2-007 lymphoblastoid cell viability; series mostly up to 92.2 µM
Text: NIH Chemical Genomics Center [NCGC] NIH Molecular Libraries Screening Centers Network [MLSCN] National Institutes of Environmental Health Sciences [NIEHS] National Toxicology Program [NTP] We have developed a 1536-well cell-based assay for quantitative high throughput screening (qHTS) against a number of cell lines to determine in vitro cytotoxicity of small molecules. […] 8. Detection; Luminescence; Viewlux plate reader […]
Records with an inconclusive call do not appear. Activity calls are given as the source filed them. Calls come from the whole dose curve; as a rule, active = well fitted cell-killing curve with a large enough effect; inconclusive = small, poorly fitted or top-dose-only effect; inactive = flat fitted curve, though single readings scatter.
Output constraint: value belongs to label 1 for active, label 0 for inactive

Request: Dear colleague, could you share the recorded outcome for Oc1ccccc1 when you have a moment?
Response: label 0

Request: Dear colleague, could you share the recorded outcome for c1ccc2occc2c1 when you have a moment?
Response: label 0

Request: Dear colleague, could you share the recorded outcome for CC(C)C(C)(C)C(C)(C)C(C)(C)S when you have a moment?
Response: label 0

Request: Dear colleague, could you share the recorded outcome for CCCCC(CC)COC(=O)c1ccccc1C(=O)O (stereo unspecified) when you have a moment?
Response: label 0

Request: Dear colleague, could you share the recorded outcome for Nc1ccc(O)cc1 when you have a moment?
Response: label 1

Request: Dear colleague, could you share the recorded outcome for O=C(NO)c1ccccc1 when you have a moment?
Response: label 0

---

tested on: KB-3-1; test: Cytotoxic Profiling of Annotated Libraries Using Quantitative High-Throughput Screening (AID 1296008); settings: Five cell lines viability, CellTiter-Glo ATP luminescence, 48-72 h; stronger effect = lower value; also: % is scaled to controls: 0 for no effect and ±100 for the full control effect; nearly all actives have a fitted effect of over 60% in size
Records with an inconclusive call do not appear.
property name: max response (%)
Numbers only, in %.

These recorded examples may help you get a feel for the data.
CCOC(=O)Cn1cccc1-c1nc(-c2ccc(OC)cc2)c(-c2ccc(OC)cc2)s1    5.97
O=C(O)[C@@H](O)[C@H](O)[C@H](O)[C@@H](O)C(=O)O    -10.9
C[C@]12CCC(=O)C=C1CC[C@@H]1[C@@H]2[C@@H](O)C[C@@]2(C)[C@H]1CC[C@]2(O)C(=O)COC(=O)CCC(=O)O    -0.87
c1ccc(C(O[C@H]2CCCN(CCc3ccc4c(c3)OCO4)C2)c2ccccc2)cc1    -8.06
O=C(OCC1(COC(=O)c2cccnc2)CCCC(COC(=O)c2cccnc2)(COC(=O)c2cccnc2)C1O)c1cccnc1    8.89

For each of the items listed, what is its max response?
1. CN1CCC(=C2c3ccccc3CCc3cccnc32)CC1
2. OCCOCCN1CCN(C(c2ccccc2)c2ccc(Cl)cc2)CC1 (configuration not stated)
3. Cc1ccccc1C(=O)N1CC/C(=N\OS(=O)(=O)O)c2ccc(Cl)cc21
4. COc1ccccc1N1CCN(CCN2C(=O)CC3(CCCC3)CC2=O)CC1
5. Cc1cc(O)c2c(O)c3c(O)cccc3cc2c1
6. CN1C(=O)c2ccccc2C1=O
7. Nc1c[n+](N2CCOCC2)no1

Response:
1: -10.8; 2: 15.7; 3: 9.71; 4: 1.39; 5: -20.5; 6: -21; 7: -10.9

For each of the items listed, what is its max response?
1. COc1cc(C=O)ccc1O
2. N=C(N)c1ccc(OCCCOc2ccc(C(=N)N)cc2)cc1
3. CC(=O)OCC[N+](C)(C)C
4. CC(=O)OCC(=O)[C@@]1(O)[C@H](OC(C)=O)C[C@H]2[C@@H]3CCC4=CC(=O)C=C[C@]4(C)[C@@]3(F)[C@@H](O)C[C@@]21C
5. O=C(O)[C@H](O)[C@@H](O)[C@H](O[C@@H]1O[C@H](CO)[C@H](O)[C@H](O)[C@H]1O)[C@H](O)CO

Response:
1. -6.73
2. -29
3. 2.39
4. 1.08
5. -11.9

---

test system: Tov-21-G; experiment: Primary qHTS to identify gynecologic anti-cancer compounds using libraries of approved drugs and bioactive compounds (AID 1345084); details: Gynecologic cancer cell panel viability, ATPlite luminescence, 48 h; series mostly up to 57.5 µM; also: nearly all actives have a fitted effect of over 55% in size
Inconclusive results are not listed. Activity calls are given as the source filed them. Calls follow the shape of the dose curve; as a rule, active = well fitted cell-killing curve with a large enough effect; inconclusive = small, poorly fitted or top-dose-only effect, or effect the other way; inactive = flat fitted curve, though single readings scatter.
Output constraint: value belongs to active, inactive

Study these solved cases before continuing.
CC(C)(C)C(=O)OCOC(=O)C1N2C(=O)CC2S(=O)(=O)C1(C)C (stereo not drawn)    inactive
CC(C)(C)C1CCC(CC2=C(O)c3ccccc3C(=O)C2=O)CC1 (stereo not drawn)    inactive
CC(C(=O)O)c1ccc(/C=C2\CCCCC2=O)cc1 (stereo not drawn)    inactive
Cc1cccc(OCC(O)CNC(C)(C)C)c1C (stereo not drawn)    inactive
Cc1ccc(C(=O)Oc2ccc(C(O)CNC(C)(C)C)cc2OC(=O)c2ccc(C)cc2)cc1 (stereo not drawn)    inactive

Request: Dear colleague, could you share the recorded outcome for COc1ccccc1OCC1CNC(=O)O1 (stereo not drawn) when you have a moment?
Response: inactive

Request: Dear colleague, could you share the recorded outcome for CCCCCCCCCCCC[N+](C)(C)Cc1ccccc1 when you have a moment?
Response: active

Request: Dear colleague, could you share the recorded outcome for CCn1ccc(NS(=O)(=O)c2ccc(N)cc2)nc1=O when you have a moment?
Response: inactive

---

experiment: Primary qHTS for inhibitors of nuclear receptor binding SET domain protein 2 (NSD2) in an isogenic RCH-ACV NSD2 p.E1099K mutant (9B) (AID 1645876); details: RCH-ACV (leukaemia line) NSD2 E1099K (9B) viability, CellTiter-Glo, 72 h; series mostly up to 44.9 µM; also: nearly all actives have a fitted effect of over 70% in size
Inconclusive results are not listed. Calls of active or inactive are those of the source. The call rests on the fitted dose curve; in most records, active means well fitted inhibition curve with a large enough effect; inconclusive means small, poorly fitted or top-dose-only effect; inactive means flat fitted curve, though single readings scatter.
Output constraint: value belongs to active, inactive

N#C/C(=C1/SC[C@@H](c2ccc(Cl)cc2Cl)S1)n1ccnc1    active

Request: Dear colleague, could you share the recorded outcome for CC(=O)c1ccc(O)c(C(N)=O)c1 when you have a moment?
Response: inactive

Request: Dear colleague, could you share the recorded outcome for CCC(=O)O[C@H]1[C@H](O[C@@H]2[C@@H](C)[C@H](O[C@H]3C[C@@](C)(OC)[C@@H](O)[C@H](C)O3)[C@@H](C)C(=O)O[C@H](CC)[C@@](C)(O)[C@H](O)[C@@H](C)C(=O)[C@H](C)C[C@@]2(C)O)O[C@H](C)C[C@@H]1N(C)C when you have a moment?
Response: inactive

Request: Dear colleague, could you share the recorded outcome for NS(=O)(=O)c1cc2c(cc1Cl)CN(C1CCCCC1)C2=O when you have a moment?
Response: inactive

Request: Dear colleague, could you share the recorded outcome for CN1CCC(=C2c3ccccc3CCc3cccnc32)CC1 when you have a moment?
Response: inactive

Request: Dear colleague, could you share the recorded outcome for N[C@@H](Cc1cc(I)c(O)c(I)c1)C(=O)O when you have a moment?
Response: inactive

Request: Dear colleague, could you share the recorded outcome for CCOC(=O)c1ccc(O)c(O)c1 when you have a moment?
Response: active

Request: Dear colleague, could you share the recorded outcome for CC(=O)OCC(=O)[C@@]1(O)CCC2C3CCC4=CC(=O)CC[C@]4(C)C3[C@@H](O)C[C@@]21C (stereo partly specified) when you have a moment?
Response: inactive

---

target: Phospholipid hydroperoxide glutathione peroxidase GPX4 (Homo sapiens) (UniProt P36969); assay: Primary qHTS Assay for Inhibitors of Recombinant Selenoprotein Glutathione Peroxidase 4 (GPX4) (AID 1845192); conditions: recombinant GPX4, GR-coupled NADPH fluorescence, 15 min; series mostly up to 50 µM; also: nearly all actives have a fitted effect of over 65% in size
Sequence (P36969 whole entry, looked up): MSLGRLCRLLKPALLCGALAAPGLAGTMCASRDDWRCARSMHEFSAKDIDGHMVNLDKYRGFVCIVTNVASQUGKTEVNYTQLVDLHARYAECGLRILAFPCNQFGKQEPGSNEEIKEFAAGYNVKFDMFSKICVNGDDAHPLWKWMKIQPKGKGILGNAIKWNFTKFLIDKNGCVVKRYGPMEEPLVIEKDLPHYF
Inconclusive results are not listed. Activity calls are given as the source filed them. Calls come from the whole dose curve; as a rule, active = well fitted inhibition curve with a large enough effect; inconclusive = small, poorly fitted or top-dose-only effect; inactive = flat fitted curve, though single readings scatter.
Output constraint: value belongs to active, inactive

Study these solved cases before continuing.
COc1c(N2C[C@@H]3CCCN[C@@H]3C2)c(F)cc2c(=O)c(C(=O)O)cn(C3CC3)c12    active
COc1c(C)c2c(c(O)c1C/C=C(\C)CCC(=O)OCCN1CCOCC1)C(=O)OC2    inactive
CC(CC(C#N)(c1ccccc1)C(C)C)N(C)C (centres undefined)    inactive

Now consider the entry below.
Request: Dear colleague, could you share the recorded outcome for CC(C)(Oc1ccc(Cl)cc1)C(=O)OCCCOC(=O)C(C)(C)Oc1ccc(Cl)cc1 when you have a moment?
Response: inactive
